Property Label: melting point

• O=C(O)c1ccc(F)s1 = 140 to 142 °C
• O=C1N(Cc2ncccc2C(F)(F)F)c2cccnc2C12COc1cc3c(cc12)OCCO3 (stereo not given) = > 250 °C
• Cc1ccccc1NC1=CC(=O)NCC1 = 155 to 158 °C
• OC(CCl)CN1CCN(C(c2ccccc2)c2ccccc2)CC1 (stereo not given) = 114 to 116 °C
• CCOC(=O)c1cccc(CN2CCN(c3nc(C)c(C(=O)NCc4ccccc4)s3)C2=O)c1 = 118 to 120 °C
• N#Cc1c(-c2ccccc2)[nH]c(=O)c2cccnc12 = 292 to 295 °C
• C[C@H](N[C@H]1CC[C@@H](c2ccccc2)CC1)[C@@H](O)c1ccc(O)cc1 = 199 to 212 °C
• CCC(=O)Nc1ccc(C(=O)C=CN(C)C)cc1 = 161 to 163 °C
• Cc1ccc(C(=O)Nc2ccc(CN3CCOCC3)c(C(F)(F)F)c2)cc1-c1ccc2cnncc2c1 = 147 to 151 °C
• Cc1ccc(NC(=O)C(N)c2ccc3c(c2)C(C)(C)CCC3(C)C)cc1 (stereo not given) = 161 to 163 °C

* * *

melting point reference
Property Label: melting point

- Cc1cc(=O)oc2nc(N(C)C)ccc12: 157 to 160 °C
- O=P(O)(O)C(F)P(=O)(O)O: 162 to 163 °C
- COc1cc(C=O)ccc1OC(C)c1nc(-c2ccccc2)oc1C (stereo unspecified): 104 to 105 °C
- CNCCCn1c2ccc(O)cc2c2c3c(c(-c4ccccc4)cc21)C(=O)NC3=O: 265 to 268 °C
- Cc1ccc2ccc(Cn3c(=S)sc4ccccc43)c(O)c2n1: 211 to 215 °C
- CCCCCCCCCCCCCCCCCCNCP(=O)(O)O: 108 to 112 °C

* * *

Property Label: melting point

- CN(C(CCn1c(=O)cc(Cl)[nH]c1=O)C(=O)NO)S(=O)(=O)c1ccc(Oc2ccc(Cl)cc2)cc1 (stereo not given): 171 to 173 °C
- COc1ccc(F)cc1C(C)(C)CC(O)(CN1CCSc2ccccc21)C(F)(F)F (stereo not given): 103 to 104 °C
- Cc1cccc(-n2cnc(OC(C)C(=O)O)n2)c1 (stereo not given): 155 to 157 °C
- CN=C(NC#N)N1CCc2[nH]cnc2C1: 240 °C
- COCCOc1ccc2c(C3C(=O)Nc4ccc(C#N)cc43)nccc2c1 (stereo not given): 214 to 219 °C

* * *

melting point reference
Property Label: melting point

• O=C(c1ccc(-c2ccncn2)cc1)N1CCN(S(=O)(=O)c2cc3cc(Cl)ccc3[nH]2)CC1 = 229 to 230 °C
• CNC(=O)c1cccc(F)c1Nc1nc(Nc2ccc3c(c2)N(CCOC)C(=O)CCC3)ncc1Br = 211 to 224 °C
• O=c1c2cc(O)ccc2oc2c([N+](=O)[O-])ccc(Cl)c12 = 290 to 292 °C
• CSC1(C)C(=O)Nc2c(C(=O)c3ccccc3)cccc21 (stereo not given) = 135 to 137 °C
• COc1ccc(O)c(CSc2ccccc2CO)c1 = 80 to 82 °C
• COc1ccc(-c2c(Cl)c(CNC(C)=O)nc3sc4c(c23)CCN(Cc2ccccc2)C4)cc1OC = 172 to 174 °C
• COC(=O)CONC(=O)c1c(Cl)ccc(Cl)c1OC = 102 to 105 °C
• O=C(O)CCCCCCCCCCn1c(-c2ccccc2)c(-c2ccccc2)n(-c2ccccc2)c1=O = 83 to 84 °C
• O=C(O)CCc1ccc(CCNS(=O)(=O)c2ccc(Cl)cc2)s1 = 127 to 130 °C
• NCCCOc1ccc2cc(CC(=O)O)c(=O)n(Cc3ccccc3)c2c1 = 126 to 128 °C
• COC(=O)c1cc(CS(=O)(=O)c2ccccc2)cnc1C1=NC(C)(C(C)C)C(=O)N1C(=O)c1ccccc1 (stereo not given) = 162 to 166 °C
• COC(=O)c1cc(F)ccc1Nc1ccnc2c(C(F)(F)F)cccc12 = 166 °C
• Cc1nc2c([N+](=O)[O-])cc3nc(O)c(O)nc3c2nc1C = > 300 °C
• COc1cc(C(=O)N2CC(O)CC2C(N)=O)cc(OC)c1OC (stereo not given) = 172 °C
• CCOP(=O)(OCC)C(O)=C1CCc2cc(CC3CCCC3)c(Cl)cc21 = 126 °C
• COc1cnnc(Oc2ccnc(OC(C)C(F)(F)F)c2)c1 (stereo not given) = 100 to 102 °C
• O=c1nc(-c2ccc(NCc3ccccc3)nc2)sc2ccccc12 = 194 to 196 °C
• O=C(N[C@H]1CC[C@H](CCN2CCN(c3nccc4c3CCO4)CC2)CC1)C1(O)CC1 = 174 °C
• Cc1c(Br)ccc(F)c1N = 49 to 50 °C
• CC(C)c1nn(-c2ccccn2)c(-c2ccc(F)cc2)c1/C=C/CO = 106 to 109 °C

* * *

melting point reference
Property Label: melting point

- N#Cc1n[nH]c(N)c1SC(F)(F)F: 187 °C
- COC(=O)CC[C@H](NC(=O)c1cccc(CCC2CNc3nc(NC(=O)C(C)(C)C)nc(O)c3C2)c1)C(=O)OC (stereo partly specified): 141 to 148 °C
- O=C(CC(=O)C(F)(F)F)c1nc2ccc(F)cc2s1: 175 to 178 °C
- CCOc1ccccc1C1CC(C(C)(C)C)=NN1c1ccc(C(=O)O)cc1 (stereo unspecified): 213 °C
- CC(C)C(=O)CC(=O)c1ccc(C(=O)CC(=O)C(C)C)cc1: 97 to 97.5 °C
- Nc1nc(N)c(CCCNc2ccc(C(=O)N[C@@H](CCC(=O)O)C(=O)O)c(Cl)c2)c(=O)[nH]1: 150 to 178 °C
- COC(=O)c1ccc(/C=C/C(=O)O)c(Cl)c1: 221 °C
- CC(C)(C)OC(=O)CN1C(=O)[C@@H](NC(=O)OC(C)(C)C)CC(=O)c2ccccc21: 75 to 77 °C
- Cc1nc2c(OCc3cccs3)cccn2c1CC#N: 155 to 157 °C
- COC(=O)c1cc(C#N)c2cc(Cc3ccc(F)cc3)cnc2c1O: 178 to 179 °C
- COC(=O)[C@H](Cc1ccc(N)cc1)NC(C)=O: 141 °C

* * *

melting point reference
Property Label: melting point (°C)

- Cc1cc(C(C#N)=CN(C)C)cc(C)n1: 149
- COC(=O)CCNc1cc(Oc2ccc(Cl)cc2Cl)ccc1[N+](=O)[O-]: 115
- Cc1c(Br)c(=O)n(C2CCCC2)c2nc(Nc3ccc(N4CCNCC4)nc3)ncc12: 290
- CC(C)C(C)(C)N1N=C([O-])O[NH2+]1: 38

* * *

melting point reference
Property Label: melting point

* COC(=O)C(=O)c1ccc(OCCOc2ccccc2)cc1 | 79 to 81 °C
* O=C1Cc2cccc(Oc3cccc(Cl)c3)c2O1 | 105 to 106 °C
* COc1ccc(-c2c(-c3ccccc3)nc3n2CCS3)cc1OC | 176 to 178 °C
* O=C(Nc1ccc([N+](=O)[O-])cc1O)NC(c1ccccc1)c1ccccc1 | 237 to 238 °C
* O=C(CNC(=O)OCc1ccccc1)NCC1CCCCC1 | 95 to 98 °C
* CC(C)c1ccc(-c2cncc(-c3cccc(C(=O)O)c3)c2)cc1 | 155 to 156 °C

* * *

Property Label: melting point

• O=S(c1ccc2c(c1)C(=C1CCN(CC3CC3)CC1)c1ccccc1C=C2)C(F)(F)F (centres undefined) = 146 to 148 °C
• NC(=O)c1ccc(-c2cnc3[nH]c(=O)n(CC4CCOCC4)c3n2)cc1 = 273 to 275 °C
• COc1ccnc(C(=O)N[C@H]2COC[C@H](OCCC(C)C)[C@@H](OCCC(C)C)[C@H](C)OC2=O)c1O = 61 to 70 °C
• Cc1noc(C)c1Cn1cc(N2C(=O)CN(CCc3ccccc3)C2=O)cn1 = 95 to 96 °C
• O=C(O)C(=O)c1ccc(OCCOc2cc3ccccc3c3ccccc23)cc1 = 179 to 180 °C
• CCc1ccccc1Cn1cc(-c2cn(C3CC(O)C(CO)O3)c(=O)[nH]c2=O)nn1 (centres undefined) = 169 to 172 °C
• CCOC(=O)C(=O)CC(=O)c1c(-c2ccccc2)cc2ccccn12 = 100 to 102 °C
• Cc1ccc(OC(=O)C=Cc2ccccc2)c(C(=O)O)c1 = 162 °C
• O=C(NC(Cc1ccc(OCc2ccc(Cl)cc2)cc1)C(=O)O)c1cc2ccc(-c3ccc(Cl)cc3)cc2o1 (centres undefined) = 195 °C

* * *

melting point reference
Property Label: melting point (°C)

• O=C(NN1CCOCC1)C(CS)Cc1c(Cl)cccc1Cl (stereo unspecified) = 142
• O=C(O)c1cnc(S)n1C(c1ccccc1)c1ccccc1 = 158
• Cc1cc(C)cc(C(=O)N2CCC(Nc3nc4ccccc4n3Cc3cccs3)CC2Cc2ccccc2)c1 (stereo unspecified) = 201
